Listed below: solubility at 30 min values for each entry.
Test: Solubility determination
Type: physicochemical
Conditions: HEPES buffer, aqueous buffer, thermodynamic from solid; 5 mM HEPES pH 7.4, 22° C., UV-vis absorbance
# unit: µM | format: bare number

Molecule	Measure unit	solubility at 30 min
CCC1OC(=O)CC[C@@H](O)[C@H](O)C[C@H](O)C[C@]2(O)C[C@H](O)[C@](C)(O)C(CC(O[C@@H]3O[C@H](C)[C@@H](O)[C@H](O)[C@@H]3O)/C=C/C=C/C=C/C=C/C=C/C(C)C(O[C@H]3C[C@@H](O)[C@@H](OC)[C@H](C)O3)C1C)O2 (some centres unmarked)	µM	2300

# input for lookup
Documented solubility at 30 min of C[C@@H]1[C@H](O)[C@@H](C)/C=C/C=C/CC/C=C/C=C/C=C/C=C/[C@H](O[C@H]2O[C@H](C)[C@@H](O)[C@H](N)[C@@H]2O)C[C@@H]2O[C@](O)(C[C@@H](O)[C@H](O)CC[C@@H](O)C[C@@H](O)C[C@@H](O)CC(=O)O[C@H]1C)C[C@H](O)[C@H]2C(=O)O [nystatin A1, reference compound] : 300
